- Study System: T1, CRBN, Q96SW2;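 also: pooled lentiviral library of zinc finger degron-EGFP fusions in mCherry-positive Jurkat cells, FACS-sorted after compound exposure, with degron abundance counted by next-generation sequencing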
- T1 chain: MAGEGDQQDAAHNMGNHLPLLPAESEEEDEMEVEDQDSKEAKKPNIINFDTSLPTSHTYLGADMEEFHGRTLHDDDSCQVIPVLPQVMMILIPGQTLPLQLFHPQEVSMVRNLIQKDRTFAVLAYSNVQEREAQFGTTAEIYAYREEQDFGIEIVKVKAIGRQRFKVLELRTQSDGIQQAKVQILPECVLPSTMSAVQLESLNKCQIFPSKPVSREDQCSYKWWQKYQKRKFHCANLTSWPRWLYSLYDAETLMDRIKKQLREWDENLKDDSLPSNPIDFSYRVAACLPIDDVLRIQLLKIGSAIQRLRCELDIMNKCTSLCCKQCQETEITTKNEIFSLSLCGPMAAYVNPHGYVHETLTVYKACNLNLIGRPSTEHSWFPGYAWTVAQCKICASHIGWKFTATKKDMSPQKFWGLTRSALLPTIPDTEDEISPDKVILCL
- Assay Name: log2 fold change of degron read counts, EGFP-low vs EGFP+ sorted cells (limma voom), compound-induced degradation; higher = more compound-induced degradation of the degron-EGFP fusion; degrons are variants of IKZF1/3 zinc finger 2; compound dose not given here
- Assay Setup: Jurkat; 18 h; compound: compound 33 (diphenyl IMiD analogue)
In all, about 8,300 sequences were measured (“log2 fold change of degron read counts, EGFP-low vs EGFP+ sorted cells (limma voom), compound-induced degradation”: median about -1.1, highest 2% from about 3.2 on). Shown is part of a subset that was picked to be rich in the highest values.
Measured log2 fold change of degron read counts accompanies every entry in the list below.
Result Type: log2 fold change of degron read counts

record_sequence="FCCEVCGARFTQKGNLLRHIKL [46F_47C_49E_50V_52G_53A_54R_55F_67L_, Q9UKT9]" result_type="log2 fold change of degron read counts" result_value=1.45
record_sequence="FECEVCGARFTQKGNLLRHIKL [46F_47E_49E_50V_52G_53A_54R_55F_67L_, Q9UKT9]" result_type="log2 fold change of degron read counts" result_value=1.27
record_sequence="FICEVCGARFTQKGNLLRHIKL [46F_47I_49E_50V_52G_53A_54R_55F_67L_, Q9UKT9]" result_type="log2 fold change of degron read counts" result_value=1.51
record_sequence="FWCEVCGARFTQKGNLLRHIKL [46F_47W_49E_50V_52G_53A_54R_55F_67L_, Q9UKT9]" result_type="log2 fold change of degron read counts" result_value=1.63
record_sequence="FCCNQCGRRFTQKGNLLRHIKL [46F_47C_49N_50Q_52G_53R_54R_55F_67L_, Q9UKT9]" result_type="log2 fold change of degron read counts" result_value=-2.09
record_sequence="FICSVCGHTFTQKGNLLRHIKL [46F_47I_49S_50V_52G_53H_54T_55F_67L_, Q9UKT9]" result_type="log2 fold change of degron read counts" result_value=-3.14
record_sequence="FQCNVCGACFTQKGNLLRHIKL [46F_47Q_49N_50V_52G_53A_54C_55F_67L_, Q9UKT9]" result_type="log2 fold change of degron read counts" result_value=0.868
record_sequence="FYCEICGRYFTQKGNLLRHIKL [46F_47Y_49E_50I_52G_53R_54Y_55F_67L_, Q9UKT9]" result_type="log2 fold change of degron read counts" result_value=-0.525
record_sequence="FLCPICGARFTQKGNLLRHIKL [46F_47L_49P_50I_52G_53A_54R_55F_67L_, Q9UKT9]" result_type="log2 fold change of degron read counts" result_value=0.469
record_sequence="FYCEVCGARFTQKGNLLRHIKL [46F_47Y_49E_50V_52G_53A_54R_55F_67L_, Q9UKT9]" result_type="log2 fold change of degron read counts" result_value=2.26
record_sequence="FDCEVCGARFTQKGNLLRHIKL [46F_47D_49E_50V_52G_53A_54R_55F_67L_, Q9UKT9]" result_type="log2 fold change of degron read counts" result_value=0.571
record_sequence="FYCNQCGHGFTQKGNLLRHIKL [46F_47Y_49N_50Q_52G_53H_54G_55F_67L_, Q9UKT9]" result_type="log2 fold change of degron read counts" result_value=-2.5
record_sequence="FGCPICGARFTQKGNLLRHIKL [46F_47G_49P_50I_52G_53A_54R_55F_67L_, Q9UKT9]" result_type="log2 fold change of degron read counts" result_value=0.0226
record_sequence="FECPICGARFTQKGNLLRHIKL [46F_47E_49P_50I_52G_53A_54R_55F_67L_, Q9UKT9]" result_type="log2 fold change of degron read counts" result_value=1.75
record_sequence="FACDQCGAYFTQKGNLLRHIKL [46F_47A_49D_50Q_52G_53A_54Y_55F_67L_, Q9UKT9]" result_type="log2 fold change of degron read counts" result_value=-1.85
